# reported neutralisation IC50, Wuhan-Hu-1 pseudovirus; entries follow
biological target: SARS-CoV-2 Wuhan-Hu-1 RBD (SARS-CoV-2, Wuhan-Hu-1 (GenBank …, UniProt P0DTC2)); assay: cell-based or functional assay

binder	result
JR070 (antibody, V domains shown) VH: QLVQSGPEVKKPGTSVKVSCKASGFTFSSSAMQWVRQARGQGLEWIGWIVVGSGNTNYAQKFQERVTISRDMSTSTAYMEVSSLTSEDAAVYYCAAPNCSRTTCSDGFDIWGQGTMVTVSS VL: EIVLTQSPGTLSLSPGERATLSCRASQSVRSSYLAWYQQKPGQAPRLLIYGASSRATGIPDRFSGSGSGTDFTVTISRLEPEDFAVYYCQQYGNSPWTFGQGTKVEIK	0.00193 mg/L
JR097 (antibody, V domains shown) VH: QVQLVQSGAEVKKPGASVKVSCKTSAYTFTTYFMHWVRQAPGQGLEWMGIINPSGGSTRYAQKFQGRVTMTRDTSTSTVYMELSGLRSEDTAVYYCARERRPGFYDSSGYSFDYWGQGTLVTVSS VL: SYELTQPPSVSVAPGKTARITCGGNNIGSKSVHWYQQKPGQAPVLVVYDDSDRPSGIPERFSGSNSGNTATLTISRVEAGDEADYYCQVWDSSSDPVVFGGGTKLTVL	> 1 mg/L

Query binder follows.
Value lookup for neutralisation IC50, Wuhan-Hu-1 pseudovirus; key = JR171 (antibody, V domains shown) VH: QVQLVQSGAEVKKPGASVKVSCKASGYTFTSYYMHWVRQAPGQGLEWMGIINPSGGSTSYAQKFQGRVTMTRDTSTSTVYMELSSLRSEDTAVYYCARAYDSAPGFDYWGQGTLVTVSS VL: DIQLTQSPSFLSASVGDRVTITCRASQGISSYLAWYQQKPGKAPKLLIYAASTLQSGVPSRFSGSGSGTEFTLTISSLQPEDFATYYCQQLNSYPSITFGQGTRLEIK
> 1 mg/L

These data points were gathered from paper PMC9253517.
